// reported IC50 (nM) Pro + Furin for each item listed
Target: human pro-myostatin (human, UniProt O14793 24-375, biotinylated (in the SPR assay))
Assay: cell-based or functional assay

| BINDER | DISPLAY UNIT | IC50 (nM) Pro + Furin |
| --- | --- | --- |
| Ab105 (antibody, human IgG4 S228P, kappa, V domains shown) VH: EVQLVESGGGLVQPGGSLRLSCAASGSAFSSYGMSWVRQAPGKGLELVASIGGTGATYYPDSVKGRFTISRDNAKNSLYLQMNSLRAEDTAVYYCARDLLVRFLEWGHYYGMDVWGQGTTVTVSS VL: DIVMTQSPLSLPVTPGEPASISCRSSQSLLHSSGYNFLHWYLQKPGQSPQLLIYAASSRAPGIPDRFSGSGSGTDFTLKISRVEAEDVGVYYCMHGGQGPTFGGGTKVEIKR | nM | 0.356 |
| Ab109 (antibody, human IgG4 S228P, kappa, V domains shown, human IgG4 in the EM experiment; also called Ab109 Human IgG4) VH: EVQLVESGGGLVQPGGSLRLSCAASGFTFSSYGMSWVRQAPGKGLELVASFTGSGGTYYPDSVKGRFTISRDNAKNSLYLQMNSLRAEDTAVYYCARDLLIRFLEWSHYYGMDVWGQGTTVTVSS VL: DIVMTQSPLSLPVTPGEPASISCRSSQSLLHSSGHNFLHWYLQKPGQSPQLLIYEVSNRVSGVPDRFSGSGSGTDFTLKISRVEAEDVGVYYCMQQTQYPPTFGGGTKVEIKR | nM | 0.214 |
| Ab103 (antibody, human IgG4 S228P, kappa, V domains shown) VH: EVQLVESGGGLVQPGGSLRLSCAASGYTFSSYGMSWVRQAPGKGLELVASITGDAGRTYYPDSVKGRFTISRDNAKNSLYLQMNSLRAEDTAVYYCARDTLVRFLEWSHYYGMDVWGQGTTVTVSS VL: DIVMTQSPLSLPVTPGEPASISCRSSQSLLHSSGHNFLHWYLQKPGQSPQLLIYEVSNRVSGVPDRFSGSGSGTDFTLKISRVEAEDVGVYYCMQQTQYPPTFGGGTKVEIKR | nM | 0.413 |
